Target: T1, membrane LIGHT S192A (human, UniProt O43557 1-240)
T1 chain: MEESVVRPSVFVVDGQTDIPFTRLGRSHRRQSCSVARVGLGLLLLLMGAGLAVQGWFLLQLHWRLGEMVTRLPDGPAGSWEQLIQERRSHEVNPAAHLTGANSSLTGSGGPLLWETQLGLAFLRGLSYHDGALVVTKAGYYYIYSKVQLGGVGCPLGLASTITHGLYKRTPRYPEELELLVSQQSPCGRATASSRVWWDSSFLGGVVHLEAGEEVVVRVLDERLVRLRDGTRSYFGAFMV
Assay: flow cytometry, transfected HEK293FF, mAb at EC50
quantity: binding, % of WT (%)
Write down the numeric answer in % and omit the unit.

Solved entries (count: 5):
INSERT INTO results (binder, quantity, reportedvalue) VALUES
  ('3D12 (antibody, human IgG4, V domains shown, chimeric: mouse variable domains on human IgG4 HC (S-to-P and L-to-E at 248) and human CL; also called Parental 3D12; 3D12 chimeric) VH: QVQLQQPGAELVRPGASVTLSCKASDYTFTDSEIHWVKQTPVHGLEWIGEIDPETGGTAYNQKFKGKATLTADKSSSTAYMELRSLTSEDSAVYYCSRETDYFFDYWGQGTTLTVSS VL: DIQMTQSPASLSASVGETVTITCGASENIYGALNWYQRKQGKSPQLLIYGATNLADGMSSRFSGSGSGRQYSLKISSLHPDDVATYYCQNVLSTPWTFGGGTKLEIKR', 'binding, % of WT', 84),
  ('3C10 (antibody, human IgG4, V domains shown, chimeric human IgG4 (S-to-P, L-to-E at 248), human CL; also called Parental 3C10) VH: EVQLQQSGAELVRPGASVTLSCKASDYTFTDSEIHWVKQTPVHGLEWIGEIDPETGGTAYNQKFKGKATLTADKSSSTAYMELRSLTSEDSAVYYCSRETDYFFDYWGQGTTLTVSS VL: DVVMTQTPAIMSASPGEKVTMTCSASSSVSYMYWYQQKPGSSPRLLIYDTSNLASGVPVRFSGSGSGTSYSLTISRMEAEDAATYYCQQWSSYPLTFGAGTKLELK', 'binding, % of WT', 35),
  ('3B04 (antibody, human IgG4, V domains shown, chimeric: mouse variable domains on human IgG4 HC (S-to-P and L-to-E at 248) and human CL; also called Parental 3B04; 3B04 chimeric) VH: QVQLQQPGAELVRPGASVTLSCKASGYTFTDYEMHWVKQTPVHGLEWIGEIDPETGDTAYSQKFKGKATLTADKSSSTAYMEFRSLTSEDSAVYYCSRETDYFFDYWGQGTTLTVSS VL: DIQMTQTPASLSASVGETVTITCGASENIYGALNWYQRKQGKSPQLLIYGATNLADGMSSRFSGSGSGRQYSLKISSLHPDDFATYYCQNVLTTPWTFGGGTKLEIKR', 'binding, % of WT', 88),
  ('3E09 (antibody, V domains shown, chimeric human IgG4 (S-to-P, L-to-E at 248), human CL; also called Parental 3E09) VH: EVQLVESGGGLVKPGGSLKLSCEASGFTFSDYYMYWVRQTPEKRLEWVAAIGDGGIYTYYADTVKGRFTISRDNAKNILYLQMSSLKSNDTAMYYCARGTGDGFAYWGQGTLVTVS VL: DIVLTQSPASLAVSLGQRATISCRASESVDSYGNSFMHWYQQKPGQPPKLLIYLASNLESGVPARFSGSGSRTDFTLTIDPVEADDAATYYCQQNNEDPYTFGGGTKLEIK', 'binding, % of WT', 50),
  ('2B11 (antibody, human IgG4, V domains shown, chimeric human IgG4 (S-to-P, L-to-E at 248), human CL; also called Parental 2B11) VH: EVQLVESGAELVRPGVSVKISCKGSGYTFTDYAIHWVKQSHAKSLEWIGVISTYYGDASYNQKFKGKATMTVDKSSSTAYMELARLTSEDSAIYYCARSRGEYGNYDAMDYWGQGTSVTVSS VL: DIVLTQSPASLAVSLGQRATISCRASESVDSYGNSFMHWYQQKPGQPPKLLIYRASNLESGIPARFSGSGSRTDFTLTINPVEADDVATYYCQQSNEDPYTFGGGTKLEIK', 'binding, % of WT', 96);

Record request: binding, % of WT value, item 3A07 (antibody, human IgG4, V domains shown, chimeric human IgG4 (S-to-P, L-to-E at 248), human CL; also called Parental 3A07) VH: QVQLQQSGAELVRPGAPVTLSCKASDYTFTDSEIHWVKQTPVHGLEWIGEIDPETGGTAYNQKFKGKATLTADKSSSTAYMELRSLTSEDSAVYYCSRETDYFFDYWGQGTTLTVSS VL: ENVLTQSPAIMSASPGEKVTMTCSASSSVSYMYWYQQRPGSSPRLLIYDTSNLASGVPVRFSGSGSGTSYSLTISRMEAEDAATYYCQQWSSYPLTFGSGTKLEIK 41

Further, for 2E08 (antibody, human IgG4, V domains shown, chimeric human IgG4 (S-to-P, L-to-E at 248), human CL; also called Parental 2E08) VH: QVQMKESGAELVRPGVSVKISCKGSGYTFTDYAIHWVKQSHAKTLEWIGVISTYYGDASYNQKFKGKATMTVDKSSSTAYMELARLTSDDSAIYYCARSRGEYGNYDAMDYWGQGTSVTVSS VL: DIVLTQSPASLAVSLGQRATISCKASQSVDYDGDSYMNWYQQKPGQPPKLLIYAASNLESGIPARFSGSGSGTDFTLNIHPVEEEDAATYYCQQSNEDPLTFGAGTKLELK ? 122
